# reported pIC50; entries follow
Target: Acetylcholinesterase (Rattus norvegicus)
Sequence (P37136 whole entry): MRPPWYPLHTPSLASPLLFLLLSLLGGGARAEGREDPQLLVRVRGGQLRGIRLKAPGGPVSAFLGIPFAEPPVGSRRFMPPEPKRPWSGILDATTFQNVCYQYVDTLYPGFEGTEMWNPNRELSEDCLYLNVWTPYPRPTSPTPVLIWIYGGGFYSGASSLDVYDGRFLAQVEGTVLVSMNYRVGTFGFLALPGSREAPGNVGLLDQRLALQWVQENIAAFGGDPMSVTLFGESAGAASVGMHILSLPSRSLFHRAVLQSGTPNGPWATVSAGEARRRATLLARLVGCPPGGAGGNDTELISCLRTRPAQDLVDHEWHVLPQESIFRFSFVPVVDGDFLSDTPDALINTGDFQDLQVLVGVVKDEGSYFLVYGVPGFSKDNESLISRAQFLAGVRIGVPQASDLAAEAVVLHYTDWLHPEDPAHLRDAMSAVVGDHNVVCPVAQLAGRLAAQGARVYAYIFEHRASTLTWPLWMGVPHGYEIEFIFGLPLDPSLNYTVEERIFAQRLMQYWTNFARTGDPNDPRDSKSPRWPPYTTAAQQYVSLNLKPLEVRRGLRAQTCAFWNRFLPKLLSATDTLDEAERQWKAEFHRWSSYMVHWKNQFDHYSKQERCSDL
Assay: Inhibition of AChE in rat brain cortex homogenates using acetylthiocholine iodide as substrate in presence of BuChE inhibitor tetraisopropyl pyrophosphoramide measured after 15 mins by Ellman's method
Scale note: pIC50 = -log10(concentration in M).

Reference set, count: 3
State, in one line, measured pIC50 of `COc1cc2c(cc1OC)C(=O)/C(=C/c1ccc(CN(C)C)c(O)c1)O2` 4.59

Tell us which pIC50 value is on record for `CCN(Cc1ccc(N(C)C)cc1)Cc1ccc(/C=C2\Oc3cc(OC)c(OC)cc3C2=O)cc1O` 3.54

Supply recorded pIC50 for `COc1cc2c(cc1OC)C(=O)/C(=C/c1ccc(CN3CCCC3)c(O)c1)O2` here. 6.61

Continuing:
Please give the documented pIC50 of `COc1cc2c(cc1OC)C(=O)/C(=C/c1ccc(CN3CCCCC3)c(O)c1)O2` 8.06

Supply pIC50 value. Item: `COc1cc2c(cc1OC)C(=O)/C(=C/c1ccc(CN(C)Cc3ccccc3)c(O)c1)O2` 4.70

Respond only with pIC50 recorded for `CCN1CCN(Cc2ccc(/C=C3\Oc4cc(OC)c(OC)cc4C3=O)cc2O)CC1` 4.62

Determine its reported pIC50: `CCN(Cc1ccccc1)Cc1ccc(/C=C2\Oc3cc(OC)c(OC)cc3C2=O)cc1O` 4.03

Return the recorded pIC50 value; entry: `COc1ccccc1CN(C)Cc1ccc(/C=C2\Oc3cc(OC)c(OC)cc3C2=O)cc1O` 4.13

----------
Below are pIC50 values recorded for Acetylcholinesterase (Homo sapiens).
Expect pIC50 as a plain number equal to -log10 of the molar concentration.

Sample records with pIC50:
Give pIC50 for the following compound: `CCN(CC)Cc1ccc(/C=C2\Oc3cc(OC)c(OC)cc3C2=O)cc1O` 6.15

Indicate the recorded pIC50 value for this compound: `COc1cc2c(cc1OC)C(=O)/C(=C/c1ccc(CN(C)Cc3ccccc3)c(O)c1)O2` 4.58

***
Report pIC50 for `CCN(Cc1ccc(/C=C2\Oc3cc(OC)c(OC)cc3C2=O)cc1O)Cc1ccccc1N(C)C` 5.17

Determine its reported pIC50: `COc1cc2c(cc1OC)C(=O)/C(=C/c1ccc(CN(C)C)c(O)c1)O2` 4.61

----------
Target: Amyloid-beta precursor protein (Homo sapiens) (UniProt P05067)
Sequence (P05067 whole entry, the tested form may be a part): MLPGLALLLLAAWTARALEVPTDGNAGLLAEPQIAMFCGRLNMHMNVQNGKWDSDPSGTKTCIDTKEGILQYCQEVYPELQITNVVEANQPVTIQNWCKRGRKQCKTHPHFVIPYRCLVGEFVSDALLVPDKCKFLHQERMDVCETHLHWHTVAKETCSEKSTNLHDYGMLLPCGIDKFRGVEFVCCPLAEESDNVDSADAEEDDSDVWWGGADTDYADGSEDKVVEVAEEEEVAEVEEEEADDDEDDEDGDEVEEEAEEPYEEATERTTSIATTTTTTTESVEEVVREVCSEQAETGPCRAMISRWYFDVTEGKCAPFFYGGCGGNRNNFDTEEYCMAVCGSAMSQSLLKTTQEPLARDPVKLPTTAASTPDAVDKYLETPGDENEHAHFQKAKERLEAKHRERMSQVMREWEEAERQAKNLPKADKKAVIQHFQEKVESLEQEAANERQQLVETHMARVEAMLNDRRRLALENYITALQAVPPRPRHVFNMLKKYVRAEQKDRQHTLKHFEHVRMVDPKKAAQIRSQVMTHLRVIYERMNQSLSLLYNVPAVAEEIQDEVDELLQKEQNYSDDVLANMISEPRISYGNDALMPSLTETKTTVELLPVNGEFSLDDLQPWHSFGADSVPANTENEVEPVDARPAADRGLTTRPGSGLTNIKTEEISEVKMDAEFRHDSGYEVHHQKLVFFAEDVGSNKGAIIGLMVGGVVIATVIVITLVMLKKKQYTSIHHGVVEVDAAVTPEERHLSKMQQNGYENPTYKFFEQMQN
Experiment: Inhibition of self-induced aggregation of HFIP-treated human amyloid beta (1 to 42 residues) at 25 uM after 24 hrs by thioflavin T-based fluorometric assay relative to control
measured_endpoint: inhibition (%)
Numbers only; they are read as %.

Specify inhibition for `COc1cc2c(cc1OC)C(=O)/C(=C/c1ccc(CN3CCCC3)c(O)c1)O2` and stop. 57.2

----------
Molecular target: Amine oxidase [flavin-containing] A (Homo sapiens)
Sequence (P21397 whole entry): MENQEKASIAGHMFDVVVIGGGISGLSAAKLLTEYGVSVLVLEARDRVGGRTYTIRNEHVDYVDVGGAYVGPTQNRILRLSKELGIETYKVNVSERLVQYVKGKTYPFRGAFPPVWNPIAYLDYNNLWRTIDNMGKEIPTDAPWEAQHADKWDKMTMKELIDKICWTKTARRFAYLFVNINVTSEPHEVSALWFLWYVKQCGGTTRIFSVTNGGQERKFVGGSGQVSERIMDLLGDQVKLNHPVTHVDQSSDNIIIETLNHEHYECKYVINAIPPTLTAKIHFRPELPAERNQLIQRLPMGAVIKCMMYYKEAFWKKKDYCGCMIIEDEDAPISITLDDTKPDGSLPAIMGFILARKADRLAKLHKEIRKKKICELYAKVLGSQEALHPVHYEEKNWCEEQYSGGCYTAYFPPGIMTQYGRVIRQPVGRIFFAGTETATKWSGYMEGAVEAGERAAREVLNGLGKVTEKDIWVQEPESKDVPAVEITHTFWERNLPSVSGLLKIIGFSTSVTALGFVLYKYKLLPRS
Assay: Inhibition of recombinant human MAO-A expressed in baculovirus infected BTI insect cells at 10 uM using kynuramine as substrate incubated for 30 mins by fluorescence assay relative to control
Details: 0.5 h
Property: inhibition at 10 µM; scope: individual compounds
Report only the number, with the unit % understood.

See these solved cases before continuing.
Return value of inhibition at 10 µM for input `CCN(Cc1ccccc1)Cc1ccc(/C=C2\Oc3cc(OC)c(OC)cc3C2=O)cc1O` , no commentary. 17

Provide inhibition at 10 µM value for the following compound: `CCN1CCN(Cc2ccc(/C=C3\Oc4cc(OC)c(OC)cc4C3=O)cc2O)CC1` 15.1

Input `COc1cc2c(cc1OC)C(=O)/C(=C/c1ccc(CN3CCN(C)CC3)c(O)c1)O2` , output reported inhibition at 10 µM. 9.2

Given `COc1cc2c(cc1OC)C(=O)/C(=C/c1ccc(O)cc1)O2` , respond with its inhibition at 10 µM. 12.1

Give the reported inhibition at 10 µM for this compound. `COc1cc2c(cc1OC)C(=O)/C(=C/c1ccc(CN3CCCC3)c(O)c1)O2` 62.9

Here is another compound to look at.
Indicate the recorded inhibition at 10 µM value for this compound: `CCN(CC)Cc1ccc(/C=C2\Oc3cc(OC)c(OC)cc3C2=O)cc1O` 22.7

----------
Biological target: Acetylcholinesterase (Homo sapiens)
Sequence (P22303 whole entry): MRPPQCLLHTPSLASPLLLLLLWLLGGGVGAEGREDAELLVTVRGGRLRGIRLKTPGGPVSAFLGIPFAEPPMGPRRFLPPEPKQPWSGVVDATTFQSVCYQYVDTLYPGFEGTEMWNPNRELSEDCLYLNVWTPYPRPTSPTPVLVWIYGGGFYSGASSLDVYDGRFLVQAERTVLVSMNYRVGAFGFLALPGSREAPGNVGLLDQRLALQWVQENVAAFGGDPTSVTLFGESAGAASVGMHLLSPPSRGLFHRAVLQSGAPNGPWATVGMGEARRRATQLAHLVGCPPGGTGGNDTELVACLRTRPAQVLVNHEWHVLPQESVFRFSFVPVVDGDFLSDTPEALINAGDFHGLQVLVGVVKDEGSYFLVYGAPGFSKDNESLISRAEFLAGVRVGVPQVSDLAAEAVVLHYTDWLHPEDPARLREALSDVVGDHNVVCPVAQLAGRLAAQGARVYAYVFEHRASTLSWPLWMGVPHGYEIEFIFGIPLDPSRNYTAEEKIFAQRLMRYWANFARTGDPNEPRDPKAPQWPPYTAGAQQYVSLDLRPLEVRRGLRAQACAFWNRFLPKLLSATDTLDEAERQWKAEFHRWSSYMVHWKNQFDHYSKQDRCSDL
pIC50: −log10 of the molar value.
I would appreciate it if you labelled entries T when pIC50 is 5 or higher, otherwise F.

Given `COc1cc2c(cc1OC)C(=O)/C(=C/c1ccc(CN3CCCCC3)c(O)c1)O2` , state whether its pIC50 is at least 5. T

Given `COc1cc2c(cc1OC)C(=O)/C(=C/c1ccc(CN3CCCC3)c(O)c1)O2` , state whether its pIC50 is at least 5. T

Decide: pIC50 of `CCN1CCN(Cc2ccc(/C=C3\Oc4cc(OC)c(OC)cc4C3=O)cc2O)CC1` >= 5? F

New cases:
Please indicate if the recorded pIC50 for `COc1cc2c(cc1OC)C(=O)/C(=C/c1ccc(CN3CCOCC3)c(O)c1)O2` meets or exceeds 5. T

# bool: pIC50 of `COc1cc2c(cc1OC)C(=O)/C(=C/c1ccc(CN3CCN(C)CC3)c(O)c1)O2` >= 5 F

----------
Molecular target: Amine oxidase [flavin-containing] B (Homo sapiens)
Sequence (P27338 whole entry): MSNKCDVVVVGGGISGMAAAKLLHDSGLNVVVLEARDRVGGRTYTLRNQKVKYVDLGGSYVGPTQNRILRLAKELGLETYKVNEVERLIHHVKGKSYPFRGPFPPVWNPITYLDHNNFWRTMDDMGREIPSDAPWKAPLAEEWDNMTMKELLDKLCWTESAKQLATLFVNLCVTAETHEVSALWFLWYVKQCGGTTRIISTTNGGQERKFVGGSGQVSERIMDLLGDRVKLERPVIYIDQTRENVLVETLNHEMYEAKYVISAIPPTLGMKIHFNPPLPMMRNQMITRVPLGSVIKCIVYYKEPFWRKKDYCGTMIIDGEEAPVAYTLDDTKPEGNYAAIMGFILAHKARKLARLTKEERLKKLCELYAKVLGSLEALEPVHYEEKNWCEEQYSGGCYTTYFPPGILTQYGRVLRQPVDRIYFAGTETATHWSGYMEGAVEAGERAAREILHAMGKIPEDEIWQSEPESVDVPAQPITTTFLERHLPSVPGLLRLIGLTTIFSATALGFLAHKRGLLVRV
Assay: Inhibition of recombinant human MAO-B expressed in baculovirus infected BTI insect cells at 10 uM using kynuramine as substrate incubated for 30 mins by fluorescence assay relative to control
Conditions: 0.5 h
measured_endpoint: inhibition at 10 µM (%)
Your answer should be a plain number; it is taken to be in %.

A selection of reference data follows.
Please report the measured inhibition at 10 µM for `CCN(Cc1ccc(/C=C2\Oc3cc(OC)c(OC)cc3C2=O)cc1O)Cc1ccccc1N(C)C` 38.1

Please report inhibition at 10 µM for the following compound: `COc1cc2c(cc1OC)C(=O)/C(=C/c1ccc(CN3CCN(Cc4ccccc4)CC3)c(O)c1)O2` 6.9

Kindly indicate its recorded inhibition at 10 µM. Item: `COc1cc2c(cc1OC)C(=O)/C(=C/c1ccc(CN3CCCCC3)c(O)c1)O2` 32

New cases:
Output measured inhibition at 10 µM for this item: `CCN(CC)Cc1ccc(/C=C2\Oc3cc(OC)c(OC)cc3C2=O)cc1O` 7.2

Look up inhibition at 10 µM of `COc1cc2c(cc1OC)C(=O)/C(=C/c1ccc(CN3CCN(C)CC3)c(O)c1)O2` and report it. 1

Quick one: give measured inhibition at 10 µM for `COc1cc2c(cc1OC)C(=O)/C(=C/c1ccc(CN3CCCC3)c(O)c1)O2` 37.9

----------
Molecular target: UniProt O42275
Sequence (O42275 whole entry): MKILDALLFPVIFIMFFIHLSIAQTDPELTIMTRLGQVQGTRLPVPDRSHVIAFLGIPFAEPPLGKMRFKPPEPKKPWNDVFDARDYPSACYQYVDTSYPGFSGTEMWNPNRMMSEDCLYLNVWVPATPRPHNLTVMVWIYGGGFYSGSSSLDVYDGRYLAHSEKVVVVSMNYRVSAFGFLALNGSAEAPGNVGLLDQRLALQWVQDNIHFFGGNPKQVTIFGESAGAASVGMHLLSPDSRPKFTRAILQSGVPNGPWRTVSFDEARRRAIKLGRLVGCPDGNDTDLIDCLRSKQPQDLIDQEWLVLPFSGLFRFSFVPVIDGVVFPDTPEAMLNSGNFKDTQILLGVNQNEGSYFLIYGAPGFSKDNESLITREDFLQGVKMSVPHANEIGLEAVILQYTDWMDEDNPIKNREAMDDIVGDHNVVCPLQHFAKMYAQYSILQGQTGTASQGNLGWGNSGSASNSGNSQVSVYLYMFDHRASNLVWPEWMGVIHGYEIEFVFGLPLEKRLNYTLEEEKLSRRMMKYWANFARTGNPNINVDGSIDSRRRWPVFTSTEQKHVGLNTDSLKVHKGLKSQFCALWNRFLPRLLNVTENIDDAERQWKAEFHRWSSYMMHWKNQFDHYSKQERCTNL
Assay: Mixed-type inhibition of Electrophorus electricus AChE pretreated for 15 mins followed by varying levels of acetylthiocholine iodide substrate addition by Lineweaver-Burk plot analysis
measured_endpoint: Ki (nM)
Report as a plain number; the unit nM is understood.

Return value of Ki for input `COc1cc2c(cc1OC)C(=O)/C(=C/c1ccc(CN3CCCCC3)c(O)c1)O2` , no commentary. 12

----------
inhibition at 10 µM listing for selected molecules.
Biological target: Amine oxidase [flavin-containing] A (Homo sapiens)
Assay: Inhibition of recombinant human MAO-A expressed in baculovirus infected BTI insect cells at 10 uM using kynuramine as substrate incubated for 30 mins by fluorescence assay relative to control
Conditions: 0.5 h
Just the number please, in %, no unit attached.

Reference set (5 entries):
Hello, please tell me recorded inhibition at 10 µM for this one: `COc1cc2c(cc1OC)C(=O)/C(=C/c1ccc(CN(C)C)c(O)c1)O2` 20.2

Query inhibition at 10 µM for `COc1ccccc1CN(C)Cc1ccc(/C=C2\Oc3cc(OC)c(OC)cc3C2=O)cc1O` 16.3

Give the reported inhibition at 10 µM for this molecule. `COc1cc2c(cc1OC)C(=O)/C(=C/c1ccc(CN3CCN(Cc4ccccc4)CC3)c(O)c1)O2` 15.3

Give the reported inhibition at 10 µM for this molecule. `COc1cc2c(cc1OC)C(=O)/C(=C/c1ccc(CN(C)Cc3ccccc3)c(O)c1)O2` 19.4

Annotate the molecule `CCN(Cc1ccc(/C=C2\Oc3cc(OC)c(OC)cc3C2=O)cc1O)Cc1ccccc1OC` with its measured inhibition at 10 µM. 9.7

Continuing:
State its inhibition at 10 µM for this molecule: `CCN(Cc1ccc(N(C)C)cc1)Cc1ccc(/C=C2\Oc3cc(OC)c(OC)cc3C2=O)cc1O` 6.8

Name the recorded inhibition at 10 µM of the item `COc1cc2c(cc1OC)C(=O)/C(=C/c1cccc(O)c1)O2` in your answer. 17.2

Indicate its recorded inhibition at 10 µM; the molecule in question is `CCN(Cc1ccc(/C=C2\Oc3cc(OC)c(OC)cc3C2=O)cc1O)Cc1ccccc1N(C)C` 15.3

Consider the molecule `COc1cc2c(cc1OC)C(=O)/C(=C/c1ccc(CN3CCOCC3)c(O)c1)O2` . State its measured inhibition at 10 µM. 12.1

Give reported inhibition at 10 µM value for `COc1cc2c(cc1OC)C(=O)/C(=C/c1ccc(CN3CCCCC3)c(O)c1)O2` 15.3
